- target.or.system: recombinant soluble homotrimeric HA, A/Anhui/1/05 (H5N1) (influenza A virus A/Anhui/1/2005 (H5N1))
- test: microarray, trimeric HA, transfection supernatant
- measurement.parameters: remark: other sources report otherwise
test.readout: Trimeric HA Binding RLU (RLU)

| binder | test.result |
| --- | --- |
| TCN-540 (5060_F05) (antibody, V domains shown) VH: QVQLVQSGGGVVQPGRSLRLSCAASGFTFSSYAMHWVRQAPGKGLEWVAIISYDGNDQYYTDSVKGRFTISRDSSKVYLQMHRLRPEDTAVYYCAKEFETSGYFHGSFDYWGQGILVTVSS VL: QSALTQPASVSGSPGQSITISCTGTSSDVGGYNYVSWYQQHPGKAPKLLIYEVTNWPSGVSNRFSGSKSGNTASLTISGLQAEDEADYYCSSYAGSSTWVFGGGTRVTVL | 2190 |
| TCN-542 (5079_A16) (antibody, V domains shown) VH: QVQLQESGPGLVKPSQTLSLTCTVSGGSISSGNYYWNWVRQHPGKGLEWIGYIYYRGSTFYNPSLKSRVTISIDTSKNQFSLRLSSVTAADTAVYYCAKDTRSSLDNYQYGMDVWGQGTTVTVSS VL: QTVVTQEPSLTVSPGGTVTLTCASSTGAVTSSYFPNWFQQKPGQAPRPLIYSTTIRHSWTPARFSGSLLGGKAALTLSGVQPEDEADYYCLLYSGGDPVAFGGGTKLTVL | 7410 |
